# system: Neuropeptide S receptor (Mus musculus, UniProt Q8BZP8)
# procedure text: Agonist activity at mouse recombinant NPSR expressed in HEK293 cells assessed as calcium mobilization
Square brackets hold non-standard residues; d marks the D form. Peptide text beside a SMILES is read from it. Aib = CC(C)(N)C(=O)O
measured property: pEC50
Convention used: pEC50 is expressed as -log10 of the molar concentration.

Exercise: Return value of pEC50 for input CSCC[C@H](NC(=O)CNC(=O)[C@@H](NC(=O)CNC(=O)[C@@H](NC(=O)CNC(=O)[C@H](CC(N)=O)NC(=O)[C@H](CCCNC(=N)N)NC(=O)[C@H](Cc1ccccc1)NC(=O)C(C)(C)N)C(C)C)[C@@H](C)O)C(=O)N[C@@H](CCCCN)C(=O)N[C@@H](CCCCN)C(=O)N[C@H](C(=O)N[C@@H](CO)C(=O)N[C@@H](Cc1ccccc1)C(=O)N[C@@H](CCC(N)=O)C(=O)N[C@@H](CCCNC(=N)N)C(=O)N[C@@H](C)C(=O)N[C@@H](CCCCN)C(=O)N[C@@H](CO)C(=O)O)[C@@H](C)O (H-[Aib]FRNGVGTGMKKTSFQRAKS-OH) , no commentary.
Solution: 8.17

====

# system: Neuropeptide S receptor (Mus musculus)
# Sequence (Q8BZP8 whole entry): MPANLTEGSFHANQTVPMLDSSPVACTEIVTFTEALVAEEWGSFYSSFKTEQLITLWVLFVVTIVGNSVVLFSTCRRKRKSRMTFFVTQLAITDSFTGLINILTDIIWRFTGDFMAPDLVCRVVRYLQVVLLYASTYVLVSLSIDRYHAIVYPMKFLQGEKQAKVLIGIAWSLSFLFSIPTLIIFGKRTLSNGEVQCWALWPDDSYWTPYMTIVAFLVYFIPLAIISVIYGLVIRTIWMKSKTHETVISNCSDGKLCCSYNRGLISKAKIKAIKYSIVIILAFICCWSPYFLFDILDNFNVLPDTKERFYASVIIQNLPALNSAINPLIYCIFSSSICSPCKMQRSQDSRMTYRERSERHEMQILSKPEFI
# procedure text: Agonist activity at mouse recombinant NPSR expressed in HEK293 cells assessed as calcium mobilization
Peptide text beside a SMILES is read from it.
measured property: EC50

| compound | EC50 |
| --- | --- |
| CSCC[C@H](NC(=O)CNC(=O)[C@@H](NC(=O)CNC(=O)[C@@H](NC(=O)CNC(=O)[C@@H]1CCCN1C(=O)[C@H](CCCNC(=N)N)NC(=O)[C@H](Cc1ccccc1)NC(=O)[C@@H](N)CO)C(C)C)[C@@H](C)O)C(=O)N[C@@H](CCCCN)C(=O)N[C@@H](CCCCN)C(=O)N[C@H](C(=O)N[C@@H](CO)C(=O)N[C@@H](Cc1ccccc1)C(=O)N[C@@H](CCC(N)=O)C(=O)N[C@@H](CCCNC(=N)N)C(=O)N[C@@H](C)C(=O)N[C@@H](CCCCN)C(=O)N[C@@H](CO)C(=O)O)[C@@H](C)O (H-SFRPGVGTGMKKTSFQRAKS-OH) | 158 nM |
| CSCC[C@H](NC(=O)[C@H](C)NC(=O)[C@@H](NC(=O)CNC(=O)[C@@H](NC(=O)CNC(=O)[C@H](CC(N)=O)NC(=O)[C@H](CCCNC(=N)N)NC(=O)[C@H](Cc1ccccc1)NC(=O)[C@@H](N)CO)C(C)C)[C@@H](C)O)C(=O)N[C@@H](CCCCN)C(=O)N[C@@H](CCCCN)C(=O)N[C@@H](C)C(=O)N[C@@H](CO)C(=O)N[C@@H](Cc1ccccc1)C(=O)N[C@@H](CCC(N)=O)C(=O)N[C@@H](CCCNC(=N)N)C(=O)N[C@@H](C)C(=O)N[C@@H](CCCCN)C(=O)N[C@@H](CO)C(=O)O (H-SFRNGVGTAMKKASFQRAKS-OH) | 15.1 nM |

Next up:
Exercise: Please respond with reported EC50 (system Neuropeptide S receptor (Mus musculus)) for `CSCC[C@H](NC(=O)CNC(=O)[C@@H](NC(=O)[C@@H](C)NC(=O)[C@@H](NC(=O)CNC(=O)[C@H](CC(N)=O)NC(=O)[C@H](CCCNC(=N)N)NC(=O)[C@H](Cc1ccccc1)NC(=O)[C@@H](N)CO)C(C)C)[C@@H](C)O)C(=O)N[C@@H](CCCCN)C(=O)N[C@@H](CCCCN)C(=O)N[C@H](C(=O)N[C@@H](CO)C(=O)N[C@@H](Cc1ccccc1)C(=O)N[C@@H](CCC(N)=O)C(=O)N[C@@H](CCCNC(=N)N)C(=O)N[C@@H](C)C(=O)N[C@@H](CCCCN)C(=O)N[C@@H](CO)C(=O)O)[C@@H](C)O` .
Solution: 23.4 nM
